Test system: COLO 205 colon
Assay: NCI tumour cell line growth inhibition, 48 h
outcome-measure: TGI

Form field TGI, entry C=C1C2C[C@@H]3O[C@H]4C[C@H]5O[C@@]6(C[C@@H]7O[C@]8(C[C@H](C)[C@@H]9O[C@@H]%10CC(CO)O[C@@H]%10C[C@@H]9O8)C[C@H](C)[C@@H]7O6)C[C@H]5O[C@H]4[C@H](C)[C@H]3OC(=O)C[C@H]3CC[C@@H]4OC5[C@H]6O[C@]7(CC[C@H]8CC(=C)[C@H](CC[C@@H](C[C@H]1C)O2)O8)CC6O[C@@H]5[C@@H](O7)[C@H]4O3 (stereo partly drawn) : 0.000322 µM

Form field TGI, entry O=C1C(=O)c2cccnc2-c2ncccc21 : 2.51 µM

Form field TGI, entry O=C1c2ccccc2C(=O)N1CC(O)COc1cccc2ccccc12 (stereo not drawn) : > 100 µM

Form field TGI, entry COC(=O)c1c2cccccc-2c(Cc2c3cccccc-3c(C(=O)OC)c2O)c1O : > 100 µM

Form field TGI, entry Cc1cccc(C)c1NC(=O)C(=O)Nn1c(NN)nc2ccccc2c1=O : > 100 µM

Form field TGI, entry Cc1cn(CC2=NCC(C)N2)c(=O)[nH]c1=O (stereo not drawn) : > 100 µM

Form field TGI, entry CC(=O)Nc1ccc(C2SCc3nc4ccccc4n32)cc1 (stereo not drawn) : > 100 µM

Form field TGI, entry C=C1CCC([N+](=O)[O-])[C@](C)(N=O)CC[C@@H]2C1CC2(C)C (stereo partly drawn) : 60.5 µM

----------
What TGI was measured for each of the following?
System: IGROV1 ovarian
Experiment: NCI tumour cell line growth inhibition, 48 h
*1 amine or outer side, *2 acyl side, *3 side chain or, on linkers, in order; H or OH if unused. Where a SMILES comes first, the peptide text is derived from it. [ ]: non-standard residue; d: D form. X32 = C[C@H](N[*:1])C(=O)C(C)(C)C(=O)[*:2]; Hmpa(2S,3S) = CC[C@H](C)[C@H](O)C(=O)O; NMeY = CN[C@@H](Cc1ccc(O)cc1)C(=O)O; NMeL = CN[C@@H](CC(C)C)C(=O)O; NMeV = CN[C@H](C(=O)O)C(C)C; βAla = NCCC(=O)O

Form field TGI, entry COc1ccccc1C(=O)c1c(NCc2ccccc2)c(=O)c1=O : 95 µM

Form field TGI, entry COc1ccc(C2ON(c3cccc(C)n3)CC=C2C)cc1 (centres undefined) : > 100 µM

Form field TGI, entry COc1cccc(/C=N/C(/N=C/c2cccc(OC)c2O)c2cccc(OC)c2O)c1O : 62.8 µM

Form field TGI, entry OC(c1cc(C23CC4CC(CC(C4)C2)C3)nc2c(Cl)cc(Cl)cc12)C1CCCCN1 (centres undefined) : 3.45 µM

Form field TGI, entry Cc1nc2c(=O)n(C)ncc2[nH]1 : > 100 µM

Form field TGI, entry COC(=O)[C@@H](C)C[C@H](Cc1ccccc1)NC(=O)c1csc([C@@H](C[C@H](C(C)C)N(C)C(=O)[C@@H](NC(=O)[C@H]2CCCCN2C)C2CC2)OC(C)=O)n1 : > 16.5 µM

Form field TGI, entry CCCCCCCCCCCCC(O)[C@H]1CC[C@H](C(O)CCCCCC(=O)CCCCC2CC(C(C)=O)C(=O)O2)O1 (some centres undefined) : 71.6 µM

Form field TGI, entry Cc1ccc(S(=O)(=O)NNCNC(=O)c2ccccc2)cc1 : > 100 µM

Form field TGI, entry C[N+]1=C(/C=C\C=C\c2ccccc2)C(C)(C)c2ccccc21 : 8.2 µM

Form field TGI, entry NC(N)=NS(=O)(=O)c1ccc(NCCc2c3ccccc3nc3ccccc23)cc1 : > 100 µM

Form field TGI, entry CCN1CCC(O)(c2ccc(Cl)cc2)C(C(=O)c2ccc(Cl)cc2)C1 (centres undefined) : > 100 µM

Form field TGI, entry CCOC(=O)c1ccc(NCC#CCN2CCCCC2)cc1 : > 100 µM

Form field TGI, entry CN(C)c1ccc(/C=C/c2cc[n+](C)c(/C=C/c3ccc(N(C)C)cc3)c2)cc1 : 3.43 µM

Form field TGI, entry CC(=O)Nc1ccc(C2SCc3nc4ccccc4n32)cc1 (centres undefined) : > 100 µM

Form field TGI, entry CCOC(=O)c1ccc(N=c2sc3ccccc3nc2Nc2ccc(C(=O)OCC)cc2)cc1 : > 100 µM

Form field TGI, entry COC(=O)c1c2cccccc-2c(Cc2c3cccccc-3c(C(=O)OC)c2O)c1O : > 100 µM

Form field TGI, entry O=C1C(=O)c2cccnc2-c2ncccc21 : 0.413 µM

Form field TGI, entry BrC(c1cccc2ccccc12)c1cccc2ccccc12 : 31.8 µM

Form field TGI, entry CC(C(O)c1ccccc1)C(O)(C(F)(F)F)C(F)(F)F (centres undefined) : > 100 µM

Form field TGI, entry O=[N+]([O-])c1cc(-c2nc(-c3ccccc3)c(-c3ccccc3)[nH]2)c(O)c([N+](=O)[O-])c1 : > 100 µM

Form field TGI, entry O=Cc1c(O)c(C(=O)Nc2ccc3[nH]c(=O)[nH]c3c2)cc2ccccc12 : > 100 µM

Form field TGI, entry O=C1C(=Cc2c(O)cc(O)cc2O)C(=O)c2ccccc21 : > 59.8 µM

Form field TGI, entry COc1ccc2nc(-c3ccc(O)cc3)sc2c1 : 36.2 µM

Form field TGI, entry N/C(=N\N=C\c1ccc2c(c1)OCCO2)NO : > 100 µM

Form field TGI, entry COc1cc(C2CC(c3ccc(Nc4ccnc5cc(Cl)ccc45)cc3)=NN2c2ccc(Cl)cc2)cc(OC)c1OC (centres undefined) : > 100 µM

Form field TGI, entry Cn1c(-c2cccc([N+](=O)[O-])c2)[n+](C)c2ccccc21 : > 100 µM

Form field TGI, entry Cc1cc2c(C)nn(Cc3ccc(Cl)cc3)c2c(C#N)c1C : > 100 µM

Form field TGI, entry CCOC(=O)c1c2c(n3ccccc13)C(=O)c1ncccc1C2=O : 42.7 µM

Form field TGI, entry CC12CCC(Br)C(C)(C)C1CC=C1C(=O)OCC1O2 (centres undefined) : 17.7 µM

Form field TGI, entry Cc1cc(N2CCOCC2)cc2[nH]c(-c3c(NC[C@@H](O)c4cccc(Cl)c4)cc[nH]c3=O)nc12 : 5.28 µM

Form field TGI, entry O=c1/c(=C/c2ccc(-c3ccc(Cl)cc3Cl)o2)sc2n1[C@@H](c1ccc(Cl)cc1)C=C(c1cc(F)c(Cl)cc1Cl)N=2 : > 100 µM

Form field TGI, entry Cc1cccc(C)c1NC(=O)C(=O)Nn1c(NN)nc2ccccc2c1=O : > 100 µM

Form field TGI, entry O=c1c2cc(Cl)ccc2sc2cccc(Cl)c12 : > 100 µM

Form field TGI, entry O=C1C(Cl)=C(Nc2ccc(S(=O)(=O)Nc3ccccn3)cc2)C(=O)c2ccccc21 : 23.1 µM

Form field TGI, entry O=C(NCCCCCCNC(=O)c1cc(-c2ccccc2)nc2ccccc12)c1cc(-c2ccccc2)nc2ccccc12 : > 100 µM

Form field TGI, entry CC(=O)OCC1OC(n2c(-c3ccc(C)cc3)cc(-c3ccccc3)c(C#N)c2=O)C(OC(C)=O)C(OC(C)=O)C1OC(C)=O (centres undefined) : > 100 µM

Form field TGI, entry COc1ccc(OCC(=O)O)c(C(=O)CCC(=O)O)c1 : > 100 µM

Form field TGI, entry CC[C@H](C)[C@@H]1OC(=O)CCNC(=O)[C@@H](C)NC(=O)C(C)(C)C(=O)[C@H](C)NC(=O)[C@H](Cc2ccc(OC)cc2)N(C)C(=O)[C@H](C(C)C)N(C)C(=O)CNC(=O)[C@H](CC(C)C)N(C)C(=O)CNC1=O (cyclo(G[NMeL]G[NMeV][NMeY](Me)[X32][dA][βAla][Hmpa(2S,3S)])) : 4.16 µM

Form field TGI, entry CCCCCCCc1cc2c3c(nc4ccccc42)C(=O)c2cccnc2-c3n1 : 15.1 µM
